Test: physchem
Settings: pH 7.4, experimental log D, log D of the solutes as verified experimentally; hydrated n-octanol/PBS buffer, UV-visible spectroscopy
reported-endpoint: logD
Lab note: write the figure by itself, no unit.

compound	reported-endpoint	value-observed
Cn1c(=O)c2[nH]cnc2n(C)c1=O [Theophylline, theophylline]	logD	0.01

Then this compound:
Query :: Query: logD; subject: c1ccc2[nH]cnc2c1 [Benzimidazole, benzimidazole]
Result :: 1.33

====

Test: physchem
Details: pH 7.4, log D, in the experimental conditions used for this validation; n-octanol/aqueous phase, pH approximately 7.4 (PBS)
reported-endpoint: logD
Just the number, please.

Query :: Return reported logD; argument: "c1ccc2[nH]cnc2c1"
Result :: 1.34

Query :: And what about the compound "Cn1c(=O)c2[nH]cnc2n(C)c1=O" ?
Result :: -0.02
